# Tested on: EW-11 (Ewing's Sarcoma);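 also: after 72 h of two-drug dosing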
# Experimental protocol: Bliss excess, mean over the matrix (fraction); higher = more synergy
Measured quantity: Bliss excess
Form: value (number only, do not type unit).

COc1cccc(OCCCN)c1-c1cc(Nc2cnc(C#N)cn2)n[nH]1 [Prexasertib] + C=CCn1c(=O)c2cnc(Nc3ccc(N4CCN(C)CC4)cc3)nc2n1-c1cccc(C(C)(C)O)n1 [AZD1775] (first compound max 1 µM, partner max 1 µM) ... -0.0815
COc1cccc2c1C(=O)c1c(O)c3c(c(O)c1C2=O)C[C@@](O)(C(=O)CO)C[C@@H]3O[C@H]1C[C@H](N)[C@H](O)[C@H](C)O1 [Doxorubicin] + Cc1cc2ncnn2cc1Nc1ncc2c(n1)n(C1CCOCC1)c(=O)n2C [AZD7648] (first compound max 1 µM, 7x7, partner max 10 µM) ... 0.0408
COc1cc2c(cc1OCCCCCOc1cc3c(cc1OC)C(=O)N1C=C(C)C[C@H]1C=N3)N=C[C@@H]1CC(C)=CN1C2=O [SG3199] + O=C(c1cc(Cc2n[nH]c(=O)c3ccccc23)ccc1F)N1CCN(C(=O)C2CC2)CC1 [Olaparib] (first compound max 0.001 µM, 7x7, partner max 10 µM) ... -0.051

// next item, Bliss excess requested
// query State the recorded Bliss excess for this entry: C[C@@H](Nc1cc(F)cc(F)c1)c1cc(C(=O)N(C)C)cc2c(=O)cc(N3CCOCC3)oc12 [AZD8186] + CC(=O)c1c(C)c2cnc(Nc3ccc(N4CCNCC4)cn3)nc2n(C2CCCC2)c1=O [Palbociclib] (first compound max 10 µM, 7x7, partner max 10 µM)
// result -0.0053

Each recorded value in this set is attributed to the supplement of paper PMC11061612.
